Tested on: cholesterol oxidase II
protocol-notes: Substrate specificity (relative activity on each substrate)
Type: biochemical, Brevibacterium sterolicum ATCC 21387
assay-setup: activity of cholesterol oxidase II on each substrate; cholesterol = 100
observation-type: Relative Activity (%)
Could you write the number and then its unit?

Worked cases, answers included:
CC(=O)[C@H]1CC[C@H]2[C@@H]3CC=C4C[C@@H](O)CC[C@]4(C)[C@H]3CC[C@]12C [Pregnenolone] | 32.9%
C=C1CC[C@H](O)C/C1=C/C=C1\CCC[C@]2(C)[C@@H]([C@H](C)CCCC(C)C)CC[C@@H]12 [Vitamin D3] | 0%

Form entry - test system: cholesterol oxidase II; read-out: Relative Activity (%); compound: C[C@]12CC[C@@H](O)C[C@@H]1CC[C@@H]1[C@@H]2CC[C@]2(C)C(=O)CC[C@@H]12 [Androsterone] 0%

Form entry - test system: cholesterol oxidase II; read-out: Relative Activity (%); compound: CC[C@H](/C=C/[C@@H](C)[C@H]1CC[C@H]2[C@@H]3CC=C4C[C@@H](O)CC[C@]4(C)[C@H]3CC[C@]12C)C(C)C [Stigmasterol] 64.4%

Form entry - test system: cholesterol oxidase II; read-out: Relative Activity (%); compound: C[C@]12CC[C@H](O)CC1=CC[C@@H]1[C@@H]2CC[C@]2(C)C(=O)CC[C@@H]12 [Dehydroisoandrosterone] 13.0%

Form entry - test system: cholesterol oxidase II; read-out: Relative Activity (%); compound: CC[C@H](CC[C@@H](C)[C@H]1CC[C@H]2[C@@H]3CC=C4C[C@@H](O)CC[C@]4(C)[C@H]3CC[C@]12C)C(C)C [β-Sitosterol] 82.0%

Form entry - test system: cholesterol oxidase II; read-out: Relative Activity (%); compound: CCCCC/C=C\C/C=C\CCCCCCCC(=O)O[C@H]1CC[C@@]2(C)C(=CC[C@H]3[C@@H]4CC[C@H]([C@H](C)CCCC(C)C)[C@@]4(C)CC[C@@H]32)C1 [Cholesterol linoleate] 0%

Form entry - test system: cholesterol oxidase II; read-out: Relative Activity (%); compound: CC(C)CCC[C@@H](C)[C@H]1CC[C@H]2[C@@H]3CC=C4C[C@@H](O)CC[C@]4(C)[C@H]3CC[C@]12C [Cholesterol, 5-cholesten-3-β-ol] 100%

Form entry - test system: cholesterol oxidase II; read-out: Relative Activity (%); compound: CC(C)=CCC[C@@H](C)[C@H]1CC[C@@]2(C)C3=C(CC[C@]12C)[C@@]1(C)CC[C@H](O)C(C)(C)[C@@H]1CC3 [Lanosterol] 0%

====

tested-on: cholesterol oxidase I (Brevibacterium sterolicum)
Construct: host or cells: Brevibacterium sterolicum ATCC 21387 (origin of the enzyme; how it was prepared is not described)
Sequence (P22637 46-552): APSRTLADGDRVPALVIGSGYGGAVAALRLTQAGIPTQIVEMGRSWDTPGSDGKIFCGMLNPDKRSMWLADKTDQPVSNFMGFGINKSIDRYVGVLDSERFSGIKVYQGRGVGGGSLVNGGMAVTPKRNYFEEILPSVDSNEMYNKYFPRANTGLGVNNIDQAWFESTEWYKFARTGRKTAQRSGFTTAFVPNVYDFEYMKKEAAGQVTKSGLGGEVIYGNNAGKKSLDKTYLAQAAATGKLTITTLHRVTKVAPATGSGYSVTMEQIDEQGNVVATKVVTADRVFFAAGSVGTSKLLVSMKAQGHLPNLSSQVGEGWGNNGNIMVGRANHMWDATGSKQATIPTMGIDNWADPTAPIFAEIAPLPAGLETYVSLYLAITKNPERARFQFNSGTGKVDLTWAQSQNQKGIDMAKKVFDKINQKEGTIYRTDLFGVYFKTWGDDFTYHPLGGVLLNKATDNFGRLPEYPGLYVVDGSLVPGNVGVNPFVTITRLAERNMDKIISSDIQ
protocol-notes: Substrate specificity (relative activity on each substrate)
Format: biochemical, Brevibacterium sterolicum ATCC 21387
assay-setup: activity of cholesterol oxidase I on each substrate; cholesterol = 100
Catalogue of molecules with associated Relative Activity (%)
// return numeric value only (unit: %, not printed)

CC[C@H](CC[C@@H](C)[C@H]1CC[C@H]2[C@@H]3CC=C4C[C@@H](O)CC[C@]4(C)[C@H]3CC[C@]12C)C(C)C [β-Sitosterol] | 19.7
CC(C)CCC[C@@H](C)[C@H]1CC[C@H]2[C@@H]3CC=C4C[C@@H](O)CC[C@]4(C)[C@H]3CC[C@]12C [Cholesterol, 5-cholesten-3-β-ol] | 100

Alright, here's another molecule for you.
Report Relative Activity (%) for C=C1CC[C@H](O)C/C1=C/C=C1\CCC[C@]2(C)[C@@H]([C@H](C)CCCC(C)C)CC[C@@H]12 [Vitamin D3] please. 0
